assay.remarks: GC/MS of serum sample: time from centrifugation to isolation (Table H)
Assay type: physicochemical, human
Parameters: key: detection intensity relative to 1 at 30 min centrifugation-to-isolation
run.parameters: detection intensity relative to 1 at 30 minutes, after 1 hour
Please go through the items and note down their Rate of increase or decrease.
Give bare numbers.

Study these solved cases before continuing.
[[record]]
molecule = "NCCCCCN"
observed = 0.50

[[record]]
molecule = "O=C(O)CCCc1ccccc1"
observed = 1.75

[[record]]
molecule = "CC(O)(CC(=O)O)C(=O)O (stereo not drawn)"
observed = 0.33

[[record]]
molecule = "CCCCCCCCCCCCCCCCCCO"
observed = 2.08

[[record]]
molecule = "OC[C@H]1O[C@@H](O[C@H]2[C@H](O)[C@@H](O)C(O)O[C@@H]2CO)[C@H](O)[C@@H](O)[C@H]1O (stereo partly drawn)"
observed = 2.37


API: the following record is the query input.
Given the entry CCCCCCC(N)C(=O)O (stereo not drawn) , report its measured Rate of increase or decrease. 1.67

* * *

Please go through the items and note down their Rate of increase or decrease.
assay.remarks: GC/MS of serum sample: time from centrifugation to isolation (Table H)
Format: physicochemical, human
Parameters: key: detection intensity relative to 1 at 30 min centrifugation-to-isolation
run.parameters: detection intensity relative to 1 at 30 minutes, after 1 hour

[[record]]
molecule = "N[C@@H](CS(=O)O)C(=O)O [3-Sulfinoalanine]"
observed = 3.07

[[record]]
molecule = "O=C(CO)[C@H](O)CO [Erythrulose]"
observed = 1.31

[[record]]
molecule = "Nc1ncnc2c1ncn2[C@@H]1O[C@H](CO)[C@@H](O)[C@H]1O [Adenosine]"
observed = 3.11


API: the following record is the query input.
Given the entry O=C(O)CCC(O)C(=O)O (stereo not shown) [2-Hydroxyglutaric acid] , report its measured Rate of increase or decrease. 1.31

* * *

assay.remarks: LC/MS of blood plasma sample: number of times of freezing and thawing (Table F)
Format: physicochemical, human
run.parameters: detection intensity relative to 1 at 2 times, freezing and thawing 10 times
Please go through the items and note down their Rate of increase or decrease.
Numbers only.

Study these solved cases before continuing.
[[record]]
structure_smiles_string = "CC(C)(CO)[C@@H](O)C(=O)NCCC(=O)O"
observed = 1.43

[[record]]
structure_smiles_string = "NC(=O)CC[C@H](N)C(=O)O"
observed = 1.34

[[record]]
structure_smiles_string = "N[C@@H](CCC(=O)O)C(=O)O"
observed = 5.21

[[record]]
structure_smiles_string = "N[C@@H](CC(=O)O)C(=O)O"
observed = 1.76


API: the following record is the query input.
Given the entry NC(=O)C[C@H](N)C(=O)O , report its measured Rate of increase or decrease. 1.38

* * *

assay.remarks: GC/MS of serum sample: number of times of freezing and thawing (Table I)
Format: physicochemical, human
run.parameters: serum sample, GC/MS; detection intensity vs 2 times of freezing and thawing
Experimental: After standing, the blood sample was subjected to centrifugation under a condition of room temperature, 3500 rpm, and 5 minutes. […] After centrifugation, the blood-collecting vessel was left to stand at room temperature, and the serum was isolated during this time. […]
quantity.measured: Increase or decrease

[[record]]
molecule = "O=C(O)c1ccccc1"
observed = "Increase"

[[record]]
molecule = "CC(O)(CC(=O)O)C(=O)O (centres unmarked)"
observed = "Decrease"

[[record]]
molecule = "O=C(O)C(=O)Cc1ccccc1"
observed = "Increase"

[[record]]
molecule = "O=C(CO)[C@H](O)[C@H](O)CO"
observed = "Decrease"

[[record]]
molecule = "O=C(O)CO"
observed = "Decrease"

[[record]]
molecule = "N[C@H]1C(O)O[C@H](CO)[C@@H](O)[C@@H]1O (some centres unmarked)"
observed = "Increase"


Please look at the items below and tell me Increase or decrease for each one, in order.
1. CC(=NO)C(=O)O
2. OC[C@H]1O[C@H](O[C@H]2O[C@H](CO)[C@@H](O)[C@H](O)[C@H]2O)[C@H](O)[C@@H](O)[C@@H]1O
3. Cc1ncc(CO)c(CN)c1O

["Increase", "Decrease", "Decrease"]
